Test system: MOLT-4 leukemia
PROTOCOL SUMMARY: NCI tumour cell line growth inhibition, 48 h; in the data active = GI50 below about 0.43 µM; inactive = the rest
Reply using exactly one outcome from t for active, f for inactive

Example results:
compound=Cc1cc(S(N)(=O)=O)c(S/C(=N\NS(=O)(=O)c2ccccc2)c2ccc(Cl)cc2)cc1Cl label_class=f
compound=O=C1Nc2ccc3c(c2/C1=C\c1cc2c(cc1Br)OCO2)OCO3 label_class=f
compound=COc1cccc(-c2nc3sccn3c2-c2ccnc(NCCCNS(=O)(=O)c3ccccc3)c2)c1 label_class=f
compound=CC[C@H]1OC(=O)[C@H](C)[C@@H](O[C@H]2C[C@@](C)(OC)[C@@H](O)[C@H](C)O2)[C@H](C)[C@@H](O[C@@H]2O[C@H](C)C[C@H](N(C)C)[C@H]2O)[C@](C)(OC)C/C(C)=C2/O[C@@]1(C)C=C2C label_class=f

Problem: Per the records of this test, what outcome belongs to CCOC(=O)/C(=C\c1ccc2ccccc2c1)P(=O)(OCC)OCC ?
Solution: f

Problem: Per the records of this test, what outcome belongs to COc1ccc2c(c1OC)O/C(=C\c1ncc([N+](=O)[O-])n1C)C2=O ?
Solution: t

Source listed as PubChem BioAssay (NCI).
